test system: TLX-5; assay: In vivo antitumor activity against the TLX5 lymphoma cell line in mouse species CBA/CA after intraperitoneal administration (inoculum cells-2x10E5,sc) at the dose of 80 mg/kg on 5th day; assay type: functional
Survivors overview
measurement-type: Survivors

substance_smiles=O=C(O)c1ncn2c(=O)n(CCCl)nnc12 readout_value=0
substance_smiles=CNC(=O)c1ncn2c(=O)n(CCCl)nnc12 readout_value=0
substance_smiles=O=C(NC1CCCCC1)c1ncn2c(=O)n(CCCl)nnc12 readout_value=1
substance_smiles=O=C(N[N+](=O)[O-])c1ncn2c(=O)n(CCCl)nnc12 readout_value=0
substance_smiles=CCOC(=O)c1ncn2c(=O)n(CCCl)nnc12 readout_value=0
substance_smiles=CCSC(=O)c1ncn2c(=O)n(CCCl)nnc12 readout_value=0
substance_smiles=O=C(Nc1ccccc1)c1ncn2c(=O)n(CCCl)nnc12 readout_value=0
substance_smiles=COC(=O)c1ncn2c(=O)n(CCCl)nnc12 readout_value=0
substance_smiles=CONC(=O)c1ncn2c(=O)n(CCCl)nnc12 readout_value=0
substance_smiles=[N-]=[N+]=NC(=O)c1ncn2c(=O)n(CCCl)nnc12 readout_value=0
substance_smiles=O=C(NCCCl)c1ncn2c(=O)n(CCCl)nnc12 readout_value=0
substance_smiles=CCOC(=O)CNC(=O)c1ncn2c(=O)n(CCCl)nnc12 readout_value=0
